System Under Test: UniProt:O43315
Sequence (O43315 whole entry): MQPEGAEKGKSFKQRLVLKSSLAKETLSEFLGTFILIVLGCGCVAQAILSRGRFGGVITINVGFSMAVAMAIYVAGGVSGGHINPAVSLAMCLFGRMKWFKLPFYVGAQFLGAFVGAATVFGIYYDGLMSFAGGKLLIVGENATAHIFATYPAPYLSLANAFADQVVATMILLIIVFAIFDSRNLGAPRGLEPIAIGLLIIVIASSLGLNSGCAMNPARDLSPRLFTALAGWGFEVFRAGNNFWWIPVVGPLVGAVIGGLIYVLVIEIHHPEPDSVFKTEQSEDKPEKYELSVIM
Procedure Summary: Calcein quenching fluostar assay (inhibition of human aquaporin 9)
Type: cell-based
Cond: Human AQP9 cell line; example compounds used as 1 mM stock solutions in DMSO
Procedure: Calcein Quenching Fluostar Assay A calcein quenching fluostar assay was performed in order to investigate the biological activity of the newly synthesized examples 1 to 57. This type of assay is disclosed in J. Biol. Chem., 2011, 286, 44319-44325 and Am. J. Physiol. Renal Physiol. (2010), 298, F224-230. 1) Two days prior to commencement of the assay, seed 10,000 cells/well of 96 well black clear bottom plate (Greiner Poly-lysin plate). […]
I'd be grateful if you could share measured EC50 for these entries.
Answer with a number only, understood to be in nM.

Recorded result, "CCc1nnc(SCC(=O)Nc2nnc(-c3ccc4c(c3)CCO4)s2)n1CC" , EC50: 124

Recorded result, "CCn1c(SCC(=O)Nc2nnc(-c3ccc(O)cc3)s2)nnc1C1CC1" , EC50: 81

Recorded result, "CCc1nnc(SCC(=O)Nc2nnc(-c3ccc(OC)cc3)s2)n1CCOC" , EC50: 112

Recorded result, "CCc1nnc(SCC(=O)Nc2nnc(-c3ccc(S(C)(=O)=O)cc3)s2)n1C" , EC50: 490

Recorded result, "CCn1c(SCC(=O)Nc2nnc(-c3ccc(OCCOC)cc3)s2)nnc1C(C)C" , EC50: 37
